# System: HeLa cells
# assay.overview: Cell viability assay (CCK-8)
# Type: cell-based
# experimental.context: Homo sapiens, 48 h, read-out: IC50 at 48 h

# structure.as.smiles, IC50
measured = [
    ("CCCCCCCCCCCC1=C(O)C(=O)C=C(O)C1=O", "13.4 µM"),
]

* * *

pIC50: −log10 of the molar value.
Reported pIC50, HePTP (Homo sapiens).
test.readout: pIC50

# structure.as.smiles, test.readout, endpoint.value
rows = [
    ("CC1(C)CCC2=C(O1)c1ccccc1C(=O)C2=O", "pIC50", "< 3.70"),
    ("CC(C)=CCC[C@]1(C)C=Cc2c(O)c3c(c(CC=C(C)C)c2O1)O[C@]12C(=C[C@@H]4C[C@H]1C(C)(C)O[C@@]2(C/C=C(/C)C(=O)O)C4=O)C3=O", "pIC50", "< 3.70"),
    ("CCCCCCCCCCCC1=C(O)C(=O)C=C(O)C1=O", "pIC50", "< 3.70"),
]
